- Tested on: Bacillus subtilis DB104 (SP-AmyQ fusion secretion)
- test-details: AmyQ secretion efficiency, weighted average sort bin (1 = best secretion, 10 = worst) (bin number (weighted average, 1-10)); higher = lower secretion efficiency
assay-endpoint: AmyQ secretion efficiency
Would you mind answering with just the numeric figure?

Below: 8 sequences and their reported AmyQ secretion efficiency.
sequence=MLKRTSFVSSLFISSAVLLSILLGSGQAHAQSA system_tested="Bacillus subtilis DB104 (SP-AmyQ fusion secretion)" reading=2.06
sequence=MLKKKWMVGLLAGCLAAGSAGFSYNAFATEN system_tested="Bacillus subtilis DB104 (SP-AmyQ fusion secretion)" reading=4.95
sequence=MFKKLLLATSALTFSLSLVLEEDDHAKAQEV system_tested="Bacillus subtilis DB104 (SP-AmyQ fusion secretion)" reading=3.32
sequence=MKKAFLVFLSVVLVTTVFLVKQQESVAQAADD system_tested="Bacillus subtilis DB104 (SP-AmyQ fusion secretion)" reading=4.45
sequence=MLKRTSFVSSLFISSAVLLSILEDDDDDAHAQSA system_tested="Bacillus subtilis DB104 (SP-AmyQ fusion secretion)" reading=5.08
sequence=MKKSQYFIVFICFFVLFSVHPIAAACADS system_tested="Bacillus subtilis DB104 (SP-AmyQ fusion secretion)" reading=4.69
sequence=MKKKLAAGLTASAIVGTTLVVVFAEAATI system_tested="Bacillus subtilis DB104 (SP-AmyQ fusion secretion)" reading=6.57
sequence=MKKKQVMLALTAAAGLGLTALHSAPAAKLAPL system_tested="Bacillus subtilis DB104 (SP-AmyQ fusion secretion)" reading=4.96

Ask: Please look up its AmyQ secretion efficiency: "MKRIRIPMTLALGAALTIAPLSFASCEEN"
Result: 4.65

Ask: "MKVCQKSIVRFLVSLIIGTFVISVPFMANAQDD" , same question.
Result: 2.65

Ask: How about "MTKKAWFLPLVCVLLISGWLAPAASASFQTT" ?
Result: 2.38

Ask: // repeat for "MKQFAITLSVLCALILLVPTLLVIPFVSAAEAGASV" and report
Result: 3.34

Ask: Thanks! And "MKRIRIPMTLALGAALTIAPLSFASAAKR" ?
Result: 4.18

Ask: Next record, please: "MKLKKRVSMFLVALTMCGTPAKAVKT"
Result: 2.72

Ask: Another: "MKVPKTMLLSTAAGLLLSLTATSDSAHYV"
Result: 6.94

Ask: Note, next up: "MRKRKVVGFLSVLGLAAVFPLTAQAEKA"
Result: 3.02

Ask: Another sequence to check: "MKLRKVLTGSVLSLGLLVSASPAFATSD"
Result: 2.17
